Taken from the supplement of paper PMC12490022.

- System: ozone
- Assay remarks: apparent second-order rate constant for reaction with ozone (kapp,O3) (M-1 s-1); higher = faster oxidation by ozone
- Stated conditions: pH 7; temperature: 22 C; OH radical scavenger: tBuOH 80 mM; phosphate 4 mM
apparent second-order rate constant values by entry

Past entries and their recorded results:
{"Compound": "Nc1nc(N)[n+]([C@@H]2O[C@H](C(=O)O)[C@@H](O)[C@H](O)[C@H]2O)nc1-c1cccc(Cl)c1Cl [Lamotrigine-N2-glucuronide]", "apparent second-order rate constant": 371}
{"Compound": "CC(=O)N(C)N(C(=O)C(=O)N(C)C)c1ccccc1 [Dioxypyramidon (AMDOPH)]", "apparent second-order rate constant": "< 0.401"}
{"Compound": "NCC(O)COc1ccc(CC(N)=O)cc1 (stereo not drawn) [Desisopropylatenolol]", "apparent second-order rate constant": 134}
{"Compound": "N#Cc1ccc2c(c1)COC2(CCCN)c1ccc(F)cc1 (stereo not drawn) [N-Didesmethylcitalopram]", "apparent second-order rate constant": 34.3}
{"Compound": "CC(C)c1nc(NS(C)(=O)=O)nc(-c2ccc(F)cc2)c1C=CC(O)CC(O)CC(=O)O (stereo not drawn) [N-Desmethylrosuvastatin]", "apparent second-order rate constant": 26000}
{"Compound": "O=C(O)CCNC(=O)c1ccc(Cl)cc1 [3-[(4-Chlorobenzoyl)amino]propanoic acid]", "apparent second-order rate constant": 0.194}
{"Compound": "Cc1c(NC=O)c(=O)n(-c2ccccc2)n1C [4-Formylaminoantipyrine]", "apparent second-order rate constant": 61000}

Next, consider the following compound.
Entry under review: O=C1CC2(CCCCC2)CN1 [Gabapentin-lactam] . Reported apparent second-order rate constant?
1.51
